Target: NGF (nerve growth factor) (Homo sapiens, UniProt P01138 P01138:122-241)
Sequence (P01138 122-241, one chain of several): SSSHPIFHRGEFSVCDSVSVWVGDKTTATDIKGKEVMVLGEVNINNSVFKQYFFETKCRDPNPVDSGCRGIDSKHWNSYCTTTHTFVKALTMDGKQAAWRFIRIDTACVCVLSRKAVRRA
Assay: SPR; strong binding
Details: tags: R&D Systems; chain copies: 2
OBSERVATION TYPE: binding result

INSERT INTO assay_data (binder, reported_value) VALUES
  ('GGGUCCUGCUGCGAAGUUUCCUUCUUCGUGGCUGUUACCC (ssRNA, 2''-F C and U; 2''-OH G; 2''-H (deoxy) A) [SEQ ID NO: 41]', 'binds'),
  ('GGGUCCUGCUGCGGAGUUUCCUUCUUCGUGGCUGUUACCC (ssRNA, 2''-F C and U; 2''-OH G; 2''-H (deoxy) A) [SEQ ID NO: 43]', 'binds'),
  ('GGGUCCUGCUGCGCAGUUUCCGUCUGCGUGGCUGUUACCC (ssRNA, 2''-F C and U; 2''-OH G; 2''-H (deoxy) A) [SEQ ID NO: 39]', 'binds'),
  ('GGGUCCUGCUGCGCAGUUUCCCUCUGCGUGGCUGUUACCC (ssRNA, 2''-F C and U; 2''-OH G; 2''-H (deoxy) A) [SEQ ID NO: 42]', 'binds'),
  ('GGGUCCUGCUGCGUAGUUUCCAUCUGCGUGGCUGUUACCC (ssRNA, 2''-F C and U; 2''-OH G; 2''-H (deoxy) A) [SEQ ID NO: 40]', 'binds'),
  ('GGGUCCUGUUGCGUAGUUUCCUUCUACGUGGCUGUUACCC (ssRNA, 2''-F C and U; 2''-OH G; 2''-H (deoxy) A) [SEQ ID NO: 45]', 'binds');
